- TARGET DESC: TNFα / TNFα receptor (TNFα R1/Fc) (Homo sapiens, UniProt P01375)
- Construct: purchased R&D Systems
- Sequence (P01375 77-233 limits assumed, species assumed): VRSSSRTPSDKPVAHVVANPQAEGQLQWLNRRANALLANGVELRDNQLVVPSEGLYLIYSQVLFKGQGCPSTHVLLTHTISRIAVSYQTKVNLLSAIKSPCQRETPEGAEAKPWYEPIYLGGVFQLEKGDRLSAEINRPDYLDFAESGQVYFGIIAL
- PROTOCOL SUMMARY: Inhibition of binding of TNFα to the TNFα receptor (plate ELISA competition)
- CONDITIONS: Table 2; read-out: Activity (IC50, inhibition of TNFα binding to TNFα R1/Fc)
pIC50: −log10 of the molar value. Numbered stars: 1 amine (or outer) side, 2 acyl side, 3 side chain; on linkers, the order of the positions; unused ones are H or OH. Bridge positions count the residues as written; N and C are the ends. Square brackets hold non-standard residues; d marks the D form. Peptide text beside a SMILES is read from it. * marks the point of attachment. Bip = N[C@@H](Cc1ccc(-c2ccccc2)cc1)C(=O)O; Phe(4-NH2) = Nc1ccc(C[C@H](N)C(=O)O)cc1; d(hPhe) = N[C@H](CCc1ccccc1)C(=O)O; d2Thi = N[C@H](Cc1cccs1)C(=O)O; Suc = O=C(CCC(=O)[*:2])[*:1]; X2 = O=C(O)[C@H]1CCCN(*)C1

MOLECULE	pIC50
O=C1COc2ccc(cc2)C[C@@H](C(=O)O)NC(=O)[C@@H](CCc2ccccc2)NC(=O)[C@H](Cc2ccc(F)cc2)NC(=O)[C@@H](Cc2cccs2)N1	< 4.00
O=C1CCC(=O)N[C@H](Cc2cccs2)C(=O)N[C@@H](Cc2ccc(-c3ccccc3)cc2)C(=O)N[C@H](Cc2ccccc2)C(=O)N[C@H](C(=O)N2CCC[C@H](C(=O)O)C2)Cc2ccc(cc2)N1 [Compound 37] ([d2Thi][Bip][dF][Phe(4-NH2)]-X2; linker N-4 via Suc)	< 4.00
O=C1CCC(=O)N[C@H](CCc2ccccc2)C(=O)N[C@@H](Cc2ccc(-c3ccccc3)cc2)C(=O)N[C@H](Cc2ccccc2)C(=O)N[C@H](C(=O)N[C@@H](Cc2ccccc2)C(=O)O)Cc2ccc(cc2)N1 [Compound 202] ([d(hPhe)][Bip][dF][Phe(4-NH2)]F-OH; linker N-4 via Suc)	> 5.00
CC[C@H](C)[C@H](NC(=O)[C@@H]1Cc2ccc(cc2)OCC(=O)N[C@H](Cc2cccs2)C(=O)N[C@@H](Cc2ccc(-c3ccccc3)cc2)C(=O)N[C@H](CCc2ccccc2)C(=O)N1)C(=O)O	> 5.00
CC(C)(C)Oc1ccc(C[C@@H]2NC(=O)COc3ccc(cc3)C[C@@H](C(=O)O)NC(=O)[C@H](CCc3ccccc3)NC(=O)[C@@H](Cc3ccc(-c4ccccc4)cc3)NC2=O)cc1	> 5.00

###

Measured IC50 by item
- TARGET DESC: TNFα / TNFα receptor (TNFα R1/Fc) (Homo sapiens)
- Construct: purchased R&D Systems
- PROTOCOL SUMMARY: Inhibition of binding of TNFα to the TNFα receptor (plate ELISA competition)
- CONDITIONS: Table 2; read-out: Activity (IC50, inhibition of TNFα binding to TNFα R1/Fc)
- Method: The compounds listed in Table 2 below were assayed for ability to inhibit binding of TNFα to the TNFα receptor (TNFα R1/Fc). The assays were performed as described in the following procedure: TNFα (R&D Systems) was coated on high binding plate wells (Corning 96-well) at a single uniform concentration of 15 nM, 100 μL/well in PBS. […] The TMB reaction was stopped with the addition of 0.5N HCl and then the plate was read for absorbance at 450 nm.
Numbered stars: 1 amine (or outer) side, 2 acyl side, 3 side chain; on linkers, the order of the positions; unused ones are H or OH. Bridge positions count the residues as written; N and C are the ends. Square brackets hold non-standard residues; d marks the D form. Peptide text beside a SMILES is read from it. Phe(4-NH2) = Nc1ccc(C[C@H](N)C(=O)O)cc1; Igl = N[C@H](C(=O)O)C1Cc2ccccc2C1; d2Thi = N[C@H](Cc1cccs1)C(=O)O; Suc = O=C(CCC(=O)[*:2])[*:1]

COMPOUND	IC50
O=C1CCC(=O)N[C@H](Cc2cccs2)C(=O)N[C@@H](C2Cc3ccccc3C2)C(=O)N[C@H](Cc2ccccc2)C(=O)N[C@H](C(=O)O)Cc2ccc(cc2)N1 [Compound 99] ([d2Thi][Igl][dF][Phe(4-NH2)]-OH; linker N-4 via Suc)	> 100 µM
O=C(O)CCNC(=O)[C@@H]1Cc2ccc(cc2)OCC(=O)N[C@@H](Cc2ccncc2)C(=O)N[C@H](Cc2ccc(-c3ccccc3)cc2)C(=O)N[C@@H](CCc2ccccc2)C(=O)N1	< 10 µM
O=C1COc2ccc(cc2)C[C@H](C(=O)N[C@H](CCc2ccccc2)C(=O)O)NC(=O)[C@H](Cc2ccccc2F)NC(=O)[C@@H](Cc2ccc(-c3ccccc3)cc2)NC(=O)[C@H](Cc2c[nH]c3ccccc23)N1	10 to 30 µM

Attribution: patent US8338565B2
